Reference source: patent US20050004126A1

system_name: MMP-13CD (catalytic domain of collagenase 3) (Homo sapiens, UniProt P45452)
assay_notes: Thiopeptolide hydrolysis assay, MMP-13;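 note: inhibition of enzymatic thiopeptolide substrate cleavage (100 µM) in pH 6.0 MES buffer with CaCl2 and DTNB, comparing hydrolysis with versus without inhibitor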
test_parameters: MMP13 IC50 μM, Table IVb
observed_property: IC50
Kindly write the number and append the unit.

QUERY: Check the records and state IC50 for `COC(=O)CCn1c(=O)c2cc(C(=O)NCc3ccc(OC)cc3)ccc2n(C)c1=O`
RESULT: 2.1 µM

QUERY: Supply reported IC50 belonging to this molecule: `COc1ccc(CNC(=O)c2ccc3c(c2)c(=O)n(CC(N)=O)c(=O)n3C)cc1`
RESULT: 1.95 µM

QUERY: Entry `COc1ccc(CNC(=O)c2ccc3c(c2)c(=O)n(CC2CC2)c(=O)n3C)cc1` needs its IC50 filled in; supply it.
RESULT: 0.95 µM

QUERY: Report measured IC50; entry is `CCn1c(=O)n(Cc2ccc(C(=O)OC)cc2)c(=O)c2cc(C(=O)NCc3ccc(OC)cc3)ccc21`
RESULT: 0.031 µM

QUERY: Provide IC50 value for the following molecule: `COC(=O)c1ccc(Cn2c(=O)c3cc(C(=O)NCc4ccc5c(c4)OCO5)ccc3n(C)c2=O)cc1`
RESULT: 0.0028 µM

QUERY: Give recorded IC50. `COc1ccc(CNC(=O)c2ccc3c(c2)c(=O)n(Cc2ccc(S(=O)(=O)N(C)C)cc2)c(=O)n3C)cc1`
RESULT: 0.007 µM

QUERY: Please look at this molecule and report its IC50: `COc1ccc(CNC(=O)c2ccc3c(c2)c(=O)n(Cc2cccc(F)c2)c(=O)n3C)cc1`
RESULT: 0.0079 µM

QUERY: Name the recorded IC50 of the molecule listed here: `CCOC(=O)CCCn1c(=O)c2cc(C(=O)NCc3ccc(OC)cc3)ccc2n(C)c1=O`
RESULT: 2.55 µM

QUERY: Quote IC50 reported for `COC(=O)c1ccc(Cn2c(=O)c3cc(C(=O)NCc4ccc(OC)cc4)ccc3n(C)c2=O)s1` please.
RESULT: 0.021 µM

###

For each of the molecules below, state its IC50.
system_name: MMP-14CD (catalytic domain of membrane type 1 MMP) (Homo sapiens, UniProt P50281)
assay_notes: Thiopeptolide hydrolysis assay, MMP-14
Format: biochemical
test_parameters: Table VI, synthesis examples; read-out: MMP014

QUERY: Identify IC50 associated with the molecule `CN1C(=O)N(Cc2ccccc2)S(=O)(=O)c2cc(C(=O)NCc3ccccc3)ccc21`
RESULT: > 30 µM

QUERY: State its IC50: `CN1C(=O)N(Cc2ccccc2)S(=O)(=O)c2cc(C(=O)OCc3ccccc3)ccc21`
RESULT: > 100 µM

QUERY: Tell us which IC50 value is on record for `COc1ccc(CNC(=O)c2ccc3c(c2)S(=O)(=O)N(Cc2ccc([N+](=O)[O-])cc2)C(=O)N3C)cc1`
RESULT: > 30 µM

###

Provide the reported pIC50 of each item.
system_name: MMP-3CD (catalytic domain of stromelysin) (Homo sapiens)
Sequence (P08254 100-272 limits assumed): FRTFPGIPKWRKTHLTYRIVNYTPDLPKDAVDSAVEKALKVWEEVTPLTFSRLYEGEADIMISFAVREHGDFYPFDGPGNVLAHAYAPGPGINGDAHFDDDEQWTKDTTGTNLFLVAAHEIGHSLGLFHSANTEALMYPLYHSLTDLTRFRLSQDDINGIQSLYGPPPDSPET
assay_notes: Thiopeptolide hydrolysis assay, MMP-3;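 note: inhibition of thiopeptolide substrate (100 µM) cleavage by the MMP-3 catalytic domain, detected with DTNB at pH 6.0 with CaCl2, hydrolysis compared against runs lacking inhibitor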
Format: biochemical
test_parameters: Table 1a; catalytic domain; read-out: MMP03 (CD) IC50
pIC50: −log10 of the molar value.

QUERY: Write down the reported pIC50 (system: MMP-3CD (catalytic domain of stromelysin) (Homo sapiens)) of Cc1c(=O)n(Cc2ccc(S(C)(=O)=O)cc2)c(=O)n2cc(C(=O)NCc3ccncc3)sc12 [Example 7]
RESULT: < 4.00

QUERY: Give reported pIC50 for COc1ccc(CNC(=O)c2cn3c(=O)n(Cc4ccc(C(=O)O)cc4)c(=O)c(C)c3s2)cc1 [Example 5] (MMP-3CD (catalytic domain of stromelysin) (Homo sapiens))
RESULT: 4.54

QUERY: Check MMP-3CD (catalytic domain of stromelysin) (Homo sapiens) data and give pIC50 for O=C(OCc1ccncc1)c1cn2c(=O)n(Cc3ccccc3)c(=O)cc2s1 [Example 4] .
RESULT: ≤ 4.52

QUERY: Param request: pIC50 | system MMP-3CD (catalytic domain of stromelysin) (Homo sapiens) | item Cc1c(=O)n(Cc2ccc(C(=O)O)cc2)c(=O)n2cc(C(=O)NCc3ccncc3)sc12 [Example 6]
RESULT: < 4.00

QUERY: Give pIC50 only, for COc1ccc(CNC(=O)c2cn3c(=O)n(Cc4ccc(Cl)c(Cl)c4)c(=O)cc3s2)cc1 [Example 8] , using MMP-3CD (catalytic domain of stromelysin) (Homo sapiens) data.
RESULT: < 4.00

QUERY: Answer with pIC50 of Cc1c(=O)n(Cc2ccccc2)c(=O)n2cc(C(=O)OCc3ccccc3)sc12 [Example 3] measured for MMP-3CD (catalytic domain of stromelysin) (Homo sapiens).
RESULT: < 4.52

QUERY: Name the value of pIC50 reported for O=C(NCc1ccccc1)c1cn2c(=O)n(Cc3ccccc3)c(=O)cc2s1 [Example 2] when tested on MMP-3CD (catalytic domain of stromelysin) (Homo sapiens).
RESULT: < 4.00

###

Provide the recorded IC50 for the entries that follow.
system_name: UniProtKB P03956
Sequence (P03956 100-469): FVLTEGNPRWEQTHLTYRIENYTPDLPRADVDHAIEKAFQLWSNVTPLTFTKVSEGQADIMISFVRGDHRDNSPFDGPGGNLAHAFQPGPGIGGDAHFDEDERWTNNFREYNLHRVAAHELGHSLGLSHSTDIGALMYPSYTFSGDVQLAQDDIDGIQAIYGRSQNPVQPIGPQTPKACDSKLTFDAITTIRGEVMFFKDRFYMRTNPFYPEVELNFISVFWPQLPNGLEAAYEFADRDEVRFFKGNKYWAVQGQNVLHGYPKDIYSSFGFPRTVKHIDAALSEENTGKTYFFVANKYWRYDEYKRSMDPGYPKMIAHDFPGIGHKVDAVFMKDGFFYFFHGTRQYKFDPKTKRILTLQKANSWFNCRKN
assay_notes: Thiopeptolide hydrolysis assay, MMP-1
Format: biochemical
test_parameters: Table 1b; read-out: MMP01 IC50
Where a name gives a salt, the structure may show the parent alone.

QUERY: Quote UniProtKB P03956 IC50 for entry `O=C(NCc1ccccc1)c1cn2c(=O)n(Cc3ccc(Cl)c(Cl)c3)c(=O)cc2s1` .
RESULT: > 30 µM

QUERY: Enter recorded IC50 with UniProtKB P03956 for `COc1ccc(CNC(=O)c2cn3c(=O)n(Cc4ccccc4)c(=O)c(C)c3s2)cc1` here.
RESULT: > 30 µM

QUERY: Enter recorded IC50 with UniProtKB P03956 for COc1ccc(CNC(=O)c2cn3c(=O)n(Cc4ccc(C(=O)O)cc4)c(=O)c(C)c3s2)cc1 [sodium salt] here.
RESULT: > 100 µM

QUERY: Answer briefly: IC50 recorded on UniProtKB P03956 for Cc1c(=O)n(Cc2ccc(C(=O)N3CCOCC3)cc2)c(=O)n2cc(C(=O)NCc3ccncc3)sc12 [hydrochloride]
RESULT: > 100 µM

###

system_name: MMP-13CD (catalytic domain of collagenase 3) (Homo sapiens)
assay_notes: Thiopeptolide hydrolysis assay, MMP-13
test_parameters: MMP13 IC50 μM, Table IVb
observed_property: IC50 (µM)
Kindly provide the numeric value in µM only, without the unit symbol.

QUERY: For the compound `Cn1c(=O)n(Cc2ccccc2)c(=O)c2cc(C(=O)NCc3ccc4c(c3)OCO4)cnc21` , give its reported IC50.
RESULT: 0.007

QUERY: Indicate its recorded IC50; the compound in question is `COc1ccc(CNC(=O)c2ccc3c(c2)c(=O)n(Cc2ccc(C4(C(=O)OC(C)(C)C)CC4)cc2)c(=O)n3C)cc1`
RESULT: 0.0665

QUERY: Assign IC50 to the following record: `COc1ccc(CNC(=O)c2ccc3c(c2)c(=O)n(Cc2ccc(NC(C)=O)cc2)c(=O)n3C)cc1`
RESULT: 0.009

QUERY: Determine from records and report IC50 for `Cn1c(=O)n(Cc2ccc(C(=O)O)cc2)c(=O)c2cc(C(=O)NCc3ccc4nonc4c3)ccc21`
RESULT: 0.003

###

system_name: MMP-1FL (full-length interstitial collagenase) (Homo sapiens, UniProt P03956)
assay_notes: Thiopeptolide hydrolysis assay, MMP-1
Format: biochemical
test_parameters: Table VI, synthesis examples; read-out: MMP01
observed_property: IC50

QUERY: Return reported IC50 for target or system MMP-1FL (full-length interstitial collagenase) (Homo sapiens, UniProt P03956), item `COc1ccc(CNC(=O)c2ccc3c(c2)S(=O)(=O)N(Cc2ccc([N+](=O)[O-])cc2)C(=O)N3C)cc1` .
RESULT: > 30 µM

QUERY: Write IC50 of `CN1C(=O)N(Cc2ccccc2)S(=O)(=O)c2cc(C(=O)NCc3ccccc3)ccc21` ; system used: MMP-1FL (full-length interstitial collagenase) (Homo sapiens, UniProt P03956)
RESULT: > 100 µM

QUERY: Answer with IC50 of `CN1C(=O)N(Cc2ccccc2)S(=O)(=O)c2cc(C(=O)OCc3ccccc3)ccc21` measured for MMP-1FL (full-length interstitial collagenase) (Homo sapiens, UniProt P03956).
RESULT: > 100 µM
